Origin of values: paper PMC9848300

Test system: LOX IMVI
protocolDescription: NCI 60 antitumor screening (single dose / five doses)
Type: cell-based
particulars: Homo sapiens; LOX IMVI (melanoma), single dose 10 μM; read-out: Growth inhibition percentage (GI %)
measureName: inhibition at 10 µM (%)
Give just the numeric value; % need not be written.

[
  {
    "compound": "Oc1ccc(/C=N/Nc2nc(N/N=C/c3ccc(O)c(O)c3)nc(N3CCOCC3)n2)cc1O [compound 6j]",
    "measureName": "inhibition at 10 µM",
    "readingUnit": "%",
    "measuredNumber": -5.85
  },
  {
    "compound": "O=C1Nc2ccc(Cl)cc2/C1=N\\Nc1nc(N/N=C2/C(=O)Nc3ccc(Cl)cc32)nc(N2CCOCC2)n1 [compound 8b]",
    "measureName": "inhibition at 10 µM",
    "readingUnit": "%",
    "measuredNumber": 76.8
  },
  {
    "compound": "O=C(NNc1nc(NNC(=O)c2ccccc2)nc(N2CCOCC2)n1)c1ccccc1 [compound 8d]",
    "measureName": "inhibition at 10 µM",
    "readingUnit": "%",
    "measuredNumber": 2.21
  },
  {
    "compound": "Fc1cccc(Cl)c1/C=N/Nc1nc(N/N=C/c2c(F)cccc2Cl)nc(N2CCCCC2)n1 [compound 7l]",
    "measureName": "inhibition at 10 µM",
    "readingUnit": "%",
    "measuredNumber": 80.4
  },
  {
    "compound": "C(=N\\Nc1nc(N/N=C/c2ccc3c(c2)OCO3)nc(N2CCCCC2)n1)/c1ccc2c(c1)OCO2 [compound 7k]",
    "measureName": "inhibition at 10 µM",
    "readingUnit": "%",
    "measuredNumber": 52.1
  },
  {
    "compound": "Clc1cccc(/C=N/Nc2nc(N/N=C/c3cccc(Cl)c3)nc(N3CCCCC3)n2)c1 [compound 7d]",
    "measureName": "inhibition at 10 µM",
    "readingUnit": "%",
    "measuredNumber": -4.97
  }
]

Proceed to the following item.
Would you please give the reported inhibition at 10 µM of COC(=O)C(Cc1ccccc1)Nc1nc(NC(Cc2ccccc2)C(=O)OC)nc(N2CCOCC2)n1 (stereo not shown) [compound 8c] with LOX IMVI?
-5.03

---

Tested on: 786-0
protocolDescription: NCI 60 antitumor screening (single dose / five doses)
Assay type: cell-based
particulars: Homo sapiens, 786-0, read-out: Growth inhibition percentage (GI %)
measureName: inhibition at 10 µM (%)
Provide the reading as a plain figure in %.

[
  {
    "compound": "O=[N+]([O-])c1cccc(/C=N/Nc2nc(N/N=C/c3cccc([N+](=O)[O-])c3)nc(N3CCCCC3)n2)c1 [compound 7f]",
    "readingUnit": "%",
    "inhibition at 10 µM": -6.21
  },
  {
    "compound": "C/C(=N\\Nc1nc(N/N=C(\\C)c2ccc([N+](=O)[O-])cc2)nc(N2CCOCC2)n1)c1ccc([N+](=O)[O-])cc1 [compound 8a]",
    "readingUnit": "%",
    "inhibition at 10 µM": 33.1
  },
  {
    "compound": "O=[N+]([O-])c1cc(/C=N/Nc2nc(N/N=C/c3ccc(Cl)c([N+](=O)[O-])c3)nc(N3CCOCC3)n2)ccc1Cl [compound 6i]",
    "readingUnit": "%",
    "inhibition at 10 µM": -8.76
  },
  {
    "compound": "O=[N+]([O-])c1cccc(/C=N/Nc2nc(N/N=C/c3cccc([N+](=O)[O-])c3)nc(N3CCOCC3)n2)c1 [compound 6f]",
    "readingUnit": "%",
    "inhibition at 10 µM": 30.4
  }
]

Would you kindly look at the next entry?
For O=[N+]([O-])c1cc(/C=N/Nc2nc(N/N=C/c3ccc(Cl)c([N+](=O)[O-])c3)nc(N3CCCCC3)n2)ccc1Cl [compound 7i] , write its inhibition at 10 µM.
-8.84

---

Below, each of the molecules is paired with its reported inhibition at 10 µM value.
System: CAKI-1
protocolDescription: NCI 60 antitumor screening (single dose)
Format: cell-based
particulars: Homo sapiens; CAKI-1 (renal cancer), single dose 10 μM; read-out: Growth inhibition percentage (GI %)
Your answer is read as %, so omit the unit and give the number.

Identify measured inhibition at 10 µM obtained with CAKI-1 for `Brc1ccccc1/C=N/Nc1nc(N/N=C/c2ccccc2Br)nc(N2CCCCC2)n1` .
3.19

Report the value of inhibition at 10 µM obtained on CAKI-1 for `C(=N\Nc1nc(N/N=C/c2ccc3c(c2)OCO3)nc(N2CCOCC2)n1)/c1ccc2c(c1)OCO2` .
21.1

Recall the reported inhibition at 10 µM of `Fc1cccc(Cl)c1/C=N/Nc1nc(N/N=C/c2c(F)cccc2Cl)nc(N2CCCCC2)n1` when tested on CAKI-1.
85.9

Lab note: CAKI-1 assay, enter inhibition at 10 µM for `Clc1cccc(/C=N/Nc2nc(N/N=C/c3cccc(Cl)c3Cl)nc(N3CCCCC3)n2)c1Cl` here
15.9

Lab note: CAKI-1 assay, enter inhibition at 10 µM for `Brc1cccc(/C=N/Nc2nc(N/N=C/c3cccc(Br)c3)nc(N3CCOCC3)n2)c1` here
84.6

Find the measured inhibition at 10 µM of `Clc1cccc(/C=N/Nc2nc(N/N=C/c3cccc(Cl)c3)nc(N3CCCCC3)n2)c1` with CAKI-1 as test system.
7.63

System CAKI-1. Read-out inhibition at 10 µM. Item `O=C1Nc2ccc(Cl)cc2/C1=N\Nc1nc(N/N=C2/C(=O)Nc3ccc(Cl)cc32)nc(N2CCOCC2)n1` . Report value.
28

Please respond with reported inhibition at 10 µM (system CAKI-1) for `Oc1ccc(/C=N/Nc2nc(N/N=C/c3ccc(O)c(O)c3)nc(N3CCOCC3)n2)cc1O` .
0.69

---

System: CCRF-CEM
protocolDescription: NCI 60 antitumor screening (single dose / five doses)
Assay type: cell-based
particulars: Homo sapiens; CCRF-CEM, five doses (0.01–100 μM); read-out: GI50
In this section we review reported GI50 values for a set of molecules.
Provide the reading as a plain figure in nM.

Below, each entry is followed by its recorded GI50 result.
[
  {
    "molecule": "Brc1cccc(/C=N/Nc2nc(N/N=C/c3cccc(Br)c3)nc(N3CCOCC3)n2)c1 [compound 6c]",
    "targetOrTestSystem": "CCRF-CEM",
    "measureName": "GI50",
    "measuredNumber": 570
  },
  {
    "molecule": "CN(C)c1ccc(/C=N/Nc2nc(N/N=C/c3ccc(N(C)C)cc3)nc(N3CCCCC3)n2)cc1 [compound 7g]",
    "targetOrTestSystem": "CCRF-CEM",
    "measureName": "GI50",
    "measuredNumber": 1210
  }
]

Give the reported GI50 for this molecule. Oc1ccccc1/C=N/Nc1nc(N/N=C/c2ccccc2O)nc(N2CCOCC2)n1 [compound 6a]
530

Return the recorded GI50 value; entry: Clc1cccc(/C=N/Nc2nc(N/N=C/c3cccc(Cl)c3)nc(N3CCOCC3)n2)c1 [compound 6d]
1340

---

Test system: NCI-H322M
protocolDescription: NCI 60 antitumor screening (single dose)
Format: cell-based
particulars: Homo sapiens; NCI-H322M (non-small cell lung cancer), single dose 10 μM; read-out: Growth inhibition percentage (GI %)
measureName: inhibition at 10 µM
Field note: include the unit after the figure.

Identify measured inhibition at 10 µM corresponding to `O=C1Nc2ccc(Cl)cc2/C1=N\Nc1nc(N/N=C2/C(=O)Nc3ccc(Cl)cc32)nc(N2CCOCC2)n1`
21.9%

Quick one: give measured inhibition at 10 µM for `Clc1cccc(/C=N/Nc2nc(N/N=C/c3cccc(Cl)c3)nc(N3CCCCC3)n2)c1`
-1.33%

For the compound `O=C(NNc1nc(NNC(=O)c2ccccc2)nc(N2CCOCC2)n1)c1ccccc1` , report inhibition at 10 µM.
4.42%

Write down inhibition at 10 µM measured for item `Fc1cccc(Cl)c1/C=N/Nc1nc(N/N=C/c2c(F)cccc2Cl)nc(N2CCCCC2)n1`
64.2%

Write down inhibition at 10 µM measured for item `Oc1ccccc1/C=N/Nc1nc(N/N=C/c2ccccc2O)nc(N2CCCCC2)n1`
41.1%

Give the reported inhibition at 10 µM for this compound. COC(=O)C(Cc1ccccc1)Nc1nc(NC(Cc2ccccc2)C(=O)OC)nc(N2CCOCC2)n1 (centres unmarked)
2.57%

Give inhibition at 10 µM for the following compound: `Brc1cccc(/C=N/Nc2nc(N/N=C/c3cccc(Br)c3)nc(N3CCOCC3)n2)c1`
47.2%

Dear colleague, please send me the reported inhibition at 10 µM for `Oc1ccccc1/C=N/Nc1nc(N/N=C/c2ccccc2O)nc(N2CCOCC2)n1` when you can.
55.5%

Annotate the compound `Fc1cccc(/C=N/Nc2nc(N/N=C/c3cccc(F)c3)nc(N3CCCCC3)n2)c1` with its measured inhibition at 10 µM.
-8.36%

Consider the compound `O=[N+]([O-])c1cc(/C=N/Nc2nc(N/N=C/c3ccc(Cl)c([N+](=O)[O-])c3)nc(N3CCCCC3)n2)ccc1Cl` and give its recorded inhibition at 10 µM.
28.8%

Identify measured inhibition at 10 µM associated with `Brc1cccc(/C=N/Nc2nc(N/N=C/c3cccc(Br)c3)nc(N3CCCCC3)n2)c1`
-3.53%
